Target under test: LNX1_1, Q8TBB1
Sequence (Q8TBB1 261-371): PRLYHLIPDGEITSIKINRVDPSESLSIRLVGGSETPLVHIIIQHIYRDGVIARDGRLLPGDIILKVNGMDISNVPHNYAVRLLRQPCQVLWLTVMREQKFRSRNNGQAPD
Assay notes: holdup assay
Parameters: key: below the threshold = too weak to quantify, mostly under pKd 3.1 to 4
Experimental context: plain residues with an end cap or a label only (N-terminal biotin on a linker: ado-ado)
Measured property: pKd

[
  {
    "Binder": "LKDDELKTKL [SLCO1A2, P46721]",
    "Result": 3.72
  },
  {
    "Binder": "EKCGKEFSEF [PRKACA, P17612]",
    "Result": "below the threshold"
  },
  {
    "Binder": "KSRVAFFEEL [NF2, P35240]",
    "Result": 3.73
  },
  {
    "Binder": "GIKKITSTAL [RPS6KA3, P51812]",
    "Result": 3.8
  },
  {
    "Binder": "NNNVVKVDSV [MTNR1A, P48039]",
    "Result": "below the threshold"
  },
  {
    "Binder": "GTGYDRKDYV [CLDN3, O15551]",
    "Result": "below the threshold"
  },
  {
    "Binder": "EDLEDEWEVI [TECPR2, O15040]",
    "Result": "below the threshold"
  },
  {
    "Binder": "AEASVACSLC [PTGIR, P43119]",
    "Result": "below the threshold"
  },
  {
    "Binder": "RSSGGDDFWF [KCNV1, Q6PIU1]",
    "Result": "below the threshold"
  }
]
